- System: K562
- methodNotes: Cell cycle arrest in human K562 cells assessed as accumulation at G2/M phase at 10 uM after 24 hrs by flow cytometry
- Format: functional
Parameter: Activity. Scope: all listed entries.
Provide the reading as a plain figure in %.

>  <molecule>
COc1ccc(C(=O)/C=C/c2c(OC)cccc2OC)c(O)c1

>  <dataValue>
18

$$$$

INPUT: K562 / Activity / "O=C(/C=C/c1c(Cl)cccc1Cl)c1ccccc1" : value?
OUTPUT: 28

INPUT: Same question, "COc1ccc(/C=C/C(=O)c2c(OC)cc(OC)cc2OC)c(OC)c1" this time
OUTPUT: 15

INPUT: Same question, "COc1cc(O)c(C(=O)/C=C/c2c(Cl)cccc2Cl)c(OC)c1" this time
OUTPUT: 26

INPUT: Same question, "COc1cc(O)c(C(=O)/C=C/c2ccccc2Cl)c(OC)c1" this time
OUTPUT: 43

INPUT: Same question, "COc1cc(O)c(C(=O)/C=C/c2cccc(F)c2)c(OC)c1" this time
OUTPUT: 48

INPUT: Same question, "CCOc1ccc(/C=C/C(=O)c2c(OCC)cccc2OCC)c(OCC)c1" this time
OUTPUT: 11

INPUT: Same question, "COc1ccc(C(=O)/C=C/c2cc(OC)ccc2OC)c(O)c1" this time
OUTPUT: 32

INPUT: Same question, "COc1cccc(OC)c1C(=O)/C=C/c1cccc(Cl)c1" this time
OUTPUT: 19

INPUT: Same question, "COc1cc(/C=C/C(=O)c2c(OC)cccc2OC)cc(OC)c1OC" this time
OUTPUT: 25

INPUT: Same question, COc1ccc(C(=O)/C=C/c2c(OC)cc(OC)cc2OC)c(OC)c1 (stereo in doubt; 52) this time
OUTPUT: 72

###

- Tested on: K562
- methodNotes: Cell cycle arrest in human K562 cells assessed as accumulation at G2/M phase at 10 uM after 24 hrs by flow cytometry
- Type: functional
quantity: Activity (%)
Provide the reading as a plain figure in %.

>  <compound>
COc1cc(/C=C/C(=O)c2c(O)cc(OC)cc2OC)cc(OC)c1

>  <endpointUnit>
%

>  <dataValue>
11

$$$$
>  <compound>
COc1ccc(C(=O)/C=C/c2ccc(OC)c(OC)c2)c(O)c1

>  <endpointUnit>
%

>  <dataValue>
18

$$$$
>  <compound>
COc1ccc(C(=O)/C=C/c2ccccc2Cl)c(OC)c1

>  <endpointUnit>
%

>  <dataValue>
42

$$$$
>  <compound>
COc1cccc(OC)c1C(=O)/C=C/c1c(OC)c(F)c(OC)c(F)c1OC

>  <endpointUnit>
%

>  <dataValue>
46

$$$$
>  <compound>
COc1cccc(OC)c1C(=O)/C=C/c1ccccc1Cl

>  <endpointUnit>
%

>  <dataValue>
23

$$$$
>  <compound>
COc1ccc(C(=O)/C=C/c2c(Cl)cccc2OC)c(O)c1

>  <endpointUnit>
%

>  <dataValue>
45

$$$$

INPUT: What does the record list as Activity for "COc1ccccc1/C=C/C(=O)c1c(OC)cccc1OC" ?
OUTPUT: 18

INPUT: Same question, "COc1cccc(/C=C/C(=O)c2c(OC)cccc2OC)c1" this time
OUTPUT: 29

INPUT: Same question, COc1ccc(C(=O)/C=C/c2c(OC)cc(OC)cc2OC)c(OC)c1 (stereo in doubt; 3) this time
OUTPUT: 86

INPUT: Same question, "COc1cc(OC)c(OC)cc1/C=C/C(=O)c1c(OC)cccc1OC" this time
OUTPUT: 49

INPUT: Same question, "COc1ccc(C(=O)/C=C/c2cccc(F)c2)c(O)c1" this time
OUTPUT: 40
